# ASSAYED_SYSTEM: Human DDB1 (Homo sapiens (Human), UniProt Q16531)
# Sequence (Q16531 whole entry): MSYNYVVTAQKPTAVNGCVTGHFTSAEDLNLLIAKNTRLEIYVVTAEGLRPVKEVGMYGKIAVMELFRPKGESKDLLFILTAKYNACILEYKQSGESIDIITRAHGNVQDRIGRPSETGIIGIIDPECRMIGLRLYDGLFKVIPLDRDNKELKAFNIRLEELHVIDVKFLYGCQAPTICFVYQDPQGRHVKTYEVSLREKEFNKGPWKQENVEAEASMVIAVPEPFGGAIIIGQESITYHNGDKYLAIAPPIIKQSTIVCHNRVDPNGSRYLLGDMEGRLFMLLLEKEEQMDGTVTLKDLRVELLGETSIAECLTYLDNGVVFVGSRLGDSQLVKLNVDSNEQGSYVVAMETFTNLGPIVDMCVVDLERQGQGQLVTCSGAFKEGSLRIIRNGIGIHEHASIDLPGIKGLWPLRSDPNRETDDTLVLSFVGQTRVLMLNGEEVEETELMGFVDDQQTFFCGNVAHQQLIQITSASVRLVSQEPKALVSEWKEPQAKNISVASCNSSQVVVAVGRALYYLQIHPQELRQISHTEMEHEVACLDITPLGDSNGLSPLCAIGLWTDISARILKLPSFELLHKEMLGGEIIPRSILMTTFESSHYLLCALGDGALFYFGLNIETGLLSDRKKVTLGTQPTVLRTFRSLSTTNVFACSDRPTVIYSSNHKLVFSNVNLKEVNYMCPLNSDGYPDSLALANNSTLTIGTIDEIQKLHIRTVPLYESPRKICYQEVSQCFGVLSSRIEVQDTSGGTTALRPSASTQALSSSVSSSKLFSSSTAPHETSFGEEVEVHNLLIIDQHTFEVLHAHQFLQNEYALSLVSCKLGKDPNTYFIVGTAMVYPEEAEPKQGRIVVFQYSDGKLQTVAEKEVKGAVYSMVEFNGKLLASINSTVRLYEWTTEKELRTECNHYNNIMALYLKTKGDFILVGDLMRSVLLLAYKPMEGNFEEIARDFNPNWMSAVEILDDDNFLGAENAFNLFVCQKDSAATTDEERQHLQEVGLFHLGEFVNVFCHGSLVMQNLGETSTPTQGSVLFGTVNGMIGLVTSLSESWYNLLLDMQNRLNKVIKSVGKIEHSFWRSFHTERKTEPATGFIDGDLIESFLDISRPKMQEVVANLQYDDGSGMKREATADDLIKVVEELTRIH
# EXPERIMENT_SUMMARY: Surface plasmon resonance (SPR) binding assay to immobilized His-DDB1
# CONDITION_INFO: SPR, steady state affinity model, 25° C.; read-out: Binding (DDB1 binder activities, Kd)
pKd: −log10 of the molar value.
ENDPOINT_LABEL: pKd

Please review the following examples before continuing.
| MOLECULE | ASSAYED_SYSTEM | DATA_VALUE |
| --- | --- | --- |
| CC(=O)Nc1ccccc1C(=O)Nc1nc(C)c([N+](=O)[O-])s1 | Human DDB1 (Homo sapiens (Human), UniProt Q16531) | 4.00 to 4.70 |
| CCOc1ccccc1C(=O)Nc1ncc([N+](=O)[O-])s1 | Human DDB1 (Homo sapiens (Human), UniProt Q16531) | > 4.70 |
| CCCCNc1ccc(C(=O)Nc2ccc([N+](=O)[O-])s2)c(-c2ccccc2)c1 | Human DDB1 (Homo sapiens (Human), UniProt Q16531) | 4.00 to 4.70 |
| CC(=O)Nc1ccccc1C(=O)Nc1ccncn1 [B-57, 2-acetamido-N-(pyrimidin-4-yl)benzamide] | Human DDB1 (Homo sapiens (Human), UniProt Q16531) | 4.00 to 4.70 |
| CCCC(=O)Nc1cccc(C(=O)Nc2ncc([N+](=O)[O-])s2)c1OC(=O)CCC | Human DDB1 (Homo sapiens (Human), UniProt Q16531) | 4.00 to 4.70 |

Provide the reported pKd of each entry below, same order.
1. CCCCNc1ccc(C(=O)Nc2ncc([N+](=O)[O-])s2)c(Nc2ccccc2)c1
2. CCCCNc1ccc(C(=O)Nc2nc(Cl)c([N+](=O)[O-])s2)c(-c2ccccc2)c1
3. CCCCNc1ccc(C(=O)Nc2ncc([N+](=O)[O-])s2)c(OC(C)=O)c1
4. CC(=O)Nc1ccccc1C(=O)Nc1ncc(F)s1

1. 4.00 to 4.70
2. > 4.70
3. > 4.70
4. 4.00 to 4.70

====

# ASSAYED_SYSTEM: Human DDB1 (Homo sapiens (Human), UniProt Q16531)
# EXPERIMENT_SUMMARY: Surface plasmon resonance (SPR) binding assay to immobilized His-DDB1
# CONDITION_INFO: SPR, steady state affinity model, 25° C.; read-out: Binding (DDB1 binder activities, Kd)
ENDPOINT_LABEL: Kd

Consider the worked cases shown below.
| COMPOUND | DATA_VALUE |
| --- | --- |
| O=C1CCCCCCN1c1ncc([N+](=O)[O-])s1 [B-101, 1-(5-Nitrothiazol-2-yl)azocan-2-one] | 20 to 100 µM |
| COc1ccccc1C(=O)Nc1ncc([N+](=O)[O-])s1 [B-73] | > 100 µM |
| CCCCNc1ccc(OCC)c(C(=O)Nc2ncc([N+](=O)[O-])s2)c1 [B-155] | > 100 µM |

Now examine the next entry.
Item: CC(=O)Nc1ccccc1C(=O)Nc1ccc(Br)cc1 [B-59, 2-Acetamido-N-(4-bromophenyl)benzamide] | System: Human DDB1 (Homo sapiens (Human), UniProt Q16531) | Kd: 20 to 100 µM

====

# ASSAYED_SYSTEM: UniProtKB Q16531
# EXPERIMENT_SUMMARY: Surface plasmon resonance (SPR) binding assay to immobilized His-DDB1
# CONDITION_INFO: SPR, steady state affinity model, 25° C.; read-out: Binding (DDB1 binder activities, Kd)
pKd: −log10 of the molar value.
ENDPOINT_LABEL: pKd

Please give pKd, item by item, for the list that follows.
1. CCCCNc1ccc(C(=O)Nc2ncc(Br)s2)c(-c2ccccc2)c1
2. CN(C)S(=O)(=O)c1ccccc1C(=O)Nc1ncc([N+](=O)[O-])s1
3. CS(=O)(=O)Nc1ccccc1C(=O)Nc1ncc([N+](=O)[O-])s1
4. CCCCNc1ccc(C(=O)Nc2ncc(C#N)s2)c(-c2ccccc2)c1
5. CC(C)C(=O)NCCC1CN(Cc2cccc3[nH]ccc23)Cc2ccnn21 (stereo not drawn)
6. CC(Nc1nc(-c2ccco2)nc2c1CCNCC2)c1nnc(N)s1 (stereo not drawn)
7. CCCCNc1ccc(C(=O)Nc2ncc([N+](=O)[O-])s2)c(-c2ccccc2)c1

["4.00 to 4.70", "4.00 to 4.70", "4.00 to 4.70", "4.00 to 4.70", "4.00 to 4.70", "4.00 to 4.70", "> 4.70"]

Provide pKd for all items below, preserving their order.
1. CC(=O)Oc1cc(NC2CCOCC2)ccc1C(=O)Nc1ncc([N+](=O)[O-])s1
2. CNC(=O)Nc1ccccc1C(=O)Nc1ncc([N+](=O)[O-])s1

1. 4.00 to 4.70
2. > 4.70

====

# ASSAYED_SYSTEM: Human DDB1 (Homo sapiens (Human), UniProt Q16531)
# EXPERIMENT_SUMMARY: Surface plasmon resonance (SPR) binding assay to immobilized His-DDB1
# CONDITION_INFO: SPR, DDB1 binding moieties with linkers and/or target protein binding moiety; read-out: Binding (Kd)
Assignment: determine reported Kd for the given molecules.

Answered examples (5):
| TEST_SMILES | DATA_VALUE |
| --- | --- |
| CC(=O)Nc1cc(NCCOCCOCCOCCOCCNC(=O)CN2CCN(c3ccc(Nc4ncc5c(C)c(C(C)=O)c(=O)n(C6CCCC6)c5n4)nc3)CC2)ccc1C(=O)Nc1nc(C)c([N+](=O)[O-])s1 | < 20 µM |
| Cc1nc(NC(=O)c2ccccc2NC(=O)CCOCCOCCOCCN)sc1[N+](=O)[O-] | 20 to 100 µM |
| CC(=O)Nc1cc(NCCOCCOCCOCCOCCOCCOCCNC(=O)C[C@@H]2N=C(c3ccc(Cl)cc3)c3c(sc(C)c3C)-n3c(C)nnc32)ccc1C(=O)Nc1nc(C)c([N+](=O)[O-])s1 | 20 to 100 µM |
| CC(=O)Nc1cc(C(=O)NCCOCCOCCOCCN)ccc1C(=O)Nc1ncc([N+](=O)[O-])s1 | 20 to 100 µM |
| CC(=O)Nc1cc(NCCOCCOCCOCCN)ccc1C(=O)Nc1ncc([N+](=O)[O-])s1 | < 20 µM |

Hi team, please reply with Kd for each item in this list.
1. CC(=O)Nc1cc(NCCCCCCCNC(=O)C[C@@H]2N=C(c3ccc(Cl)cc3)c3c(sc(C)c3C)-n3c(C)nnc32)ccc1C(=O)Nc1nc(C)c([N+](=O)[O-])s1
2. NCCOCCOCCOCCC(=O)Nc1ccccc1C(=O)Nc1ncc([N+](=O)[O-])s1
3. CC(=O)Nc1cc(NCCOCCOCCOCCNC(=O)CN2CCN(c3ccc(Nc4ncc5c(C)c(C(C)=O)c(=O)n(C6CCCC6)c5n4)nc3)CC2)ccc1C(=O)Nc1nc(C)c([N+](=O)[O-])s1
4. CC(=O)Nc1cc(C(=O)NCCOCCOCCOCCN)ccc1C(=O)Nc1nc(C)c([N+](=O)[O-])s1
5. CC(=O)Nc1cc(NCCCCCCCN)ccc1C(=O)Nc1nc(C)c([N+](=O)[O-])s1
6. CC(=O)Nc1cc(NCCOCCOCCOCCOCCNC(=O)CN2CCN(c3cccc(-c4cnc5ccc(N6CCC[C@@H]6c6cccc(F)c6)nn45)n3)CC2)ccc1C(=O)Nc1nc(C)c([N+](=O)[O-])s1
7. CC(=O)Nc1cc(NCCOCCOCCNC(=O)CN2CCN(c3ccc(Nc4ncc5c(C)c(C(C)=O)c(=O)n(C6CCCC6)c5n4)nc3)CC2)ccc1C(=O)Nc1nc(C)c([N+](=O)[O-])s1
8. CC(=O)Nc1cc(NCCOCCOCCOCCOCCOCCOCCNC(=O)CN2CCN(c3ccc(Nc4ncc5c(C)c(C(C)=O)c(=O)n(C6CCCC6)c5n4)nc3)CC2)ccc1C(=O)Nc1nc(C)c([N+](=O)[O-])s1

["20 to 100 µM", "20 to 100 µM", "< 20 µM", "20 to 100 µM", "20 to 100 µM", "20 to 100 µM", "< 20 µM", "< 20 µM"]

====

# ASSAYED_SYSTEM: Human DDB1 (Homo sapiens (Human), UniProt Q16531)
# EXPERIMENT_SUMMARY: Surface plasmon resonance (SPR) binding assay to immobilized His-DDB1
# CONDITION_INFO: SPR, steady state affinity model, 25° C.; read-out: Binding (DDB1 binder activities, Kd)
ENDPOINT_LABEL: Kd

# annotated cases, reported Kd shown
| COMPOUND | ASSAYED_SYSTEM | DATA_VALUE |
| --- | --- | --- |
| O=C(Nc1ncc([N+](=O)[O-])s1)c1ccccc1 [B-3, N-(5-Nitrothiazol-2-yl)benzamide] | Human DDB1 (Homo sapiens (Human), UniProt Q16531) | 20 to 100 µM |
| CC(=O)Nc1ccccc1C(=O)Nc1nc(S(C)(=O)=O)cs1 | Human DDB1 (Homo sapiens (Human), UniProt Q16531) | > 100 µM |

Provide Kd values for the following items, in order.
1. CC(C)C(=O)Nc1ccccc1C(=O)Nc1ncc([N+](=O)[O-])s1
2. Cc1cc(C(C)C)ccc1C(=O)Nc1ncc([N+](=O)[O-])s1
3. Cc1cc(N2CCOCC2)ccc1C(=O)Nc1ncc([N+](=O)[O-])s1

1: 20 to 100 µM; 2: > 100 µM; 3: > 100 µM
